target: T1, PUF4 RNA-binding domain (Saccharomyces cerevisiae, UniProt P25339 537-888)
T1 sequence: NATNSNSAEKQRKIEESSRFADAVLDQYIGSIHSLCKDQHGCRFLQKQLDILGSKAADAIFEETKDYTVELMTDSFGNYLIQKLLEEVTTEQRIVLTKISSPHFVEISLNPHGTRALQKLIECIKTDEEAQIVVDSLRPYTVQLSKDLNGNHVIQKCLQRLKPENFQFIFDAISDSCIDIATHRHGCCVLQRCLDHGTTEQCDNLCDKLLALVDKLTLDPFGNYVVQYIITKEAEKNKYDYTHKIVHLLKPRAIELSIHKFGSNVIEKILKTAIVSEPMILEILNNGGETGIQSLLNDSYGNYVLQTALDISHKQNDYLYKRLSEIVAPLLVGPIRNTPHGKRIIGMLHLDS
test.summary: Mg; RNA-MaP; 20 mM Na-HEPES pH 7.4, 30 mM KOAc, 0.75 mM MgCl2, 0.1% Tween-20, 5% glycerol, 0.1 mg/mL BSA, 2 mM DTT; 25 C; 0.0125-409.6 nM protein
conditions: tags: N-His6-TEV cleaved; C-SNAP kept, Cy3B-labelled; label: tethered on chip by stalled RNA polymerase
Parameter Kd: see the listing below.
Hi! Could you send only the number? It should be in nM, unit omitted.

Here's what some known entries look like.
| binder | unit.label | recorded.value |
| --- | --- | --- |
| Id_ii_S4_P4E.4_K4.3_C4.2_[C-2T]_[T-1C]_H4.3_A4.1_F4.1_T4.2_[G10A]_[T11C] (ssRNA) RNA: UUUGACAACUGAUCGUUCUUUCUUCACACUAUUAACUUCUUUCUCGAUCAGUUGUCUUU | nM | 2110 |
| Ib_S2_P4E.1_K4.1_C4.1_H4.1_A4.1_[T5A]_[A6C]_F4.1_T4.1 (ssRNA) RNA: UUUGAUUAAUAUGAUAUCGUUCUUUCUUGUAACUUAUUCUUUCUCGAUAUCAUAUUAAUCUUU | nM | 2.62 |

--- query ---
What the record says about Id_i_S2_P3E.6_K3.2_C3.3_[T-3A]_[C-2T]_[T-1C]_H3.2_A3.1_F3.1_T3.2 (ssRNA) RNA: UUUGAUUAAUAUGAUAUCGUUCUUUCUAUCUAUAUAUAUAUUCUUUCUCGAUAUCAUAUUAAUCUUU : Kd is 170
